target: human GCGR (Homo sapiens (Human), UniProt P47871); assay: Cellular functional assay, cAMP readout (glucagon-stimulated cAMP in HEK293 cells expressing human GCGR); type: cell-based; conditions: hGluc-1 HEK cells, LANCE TR-FRET, IC50 converted to Ki, average if tested more than once
Sequence (P47871 26-477): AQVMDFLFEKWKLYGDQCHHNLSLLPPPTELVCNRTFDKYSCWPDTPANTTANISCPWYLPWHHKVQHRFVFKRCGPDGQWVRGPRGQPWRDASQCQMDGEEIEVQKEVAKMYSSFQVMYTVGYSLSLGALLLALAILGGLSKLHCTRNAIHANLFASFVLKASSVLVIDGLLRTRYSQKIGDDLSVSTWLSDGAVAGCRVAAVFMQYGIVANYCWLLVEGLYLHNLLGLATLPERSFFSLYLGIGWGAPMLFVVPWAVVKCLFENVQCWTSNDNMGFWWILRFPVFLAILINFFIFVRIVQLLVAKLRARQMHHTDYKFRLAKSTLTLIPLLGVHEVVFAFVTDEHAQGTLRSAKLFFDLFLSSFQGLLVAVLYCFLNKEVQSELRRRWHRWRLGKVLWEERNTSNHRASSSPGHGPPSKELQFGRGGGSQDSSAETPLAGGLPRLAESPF
measured.endpoint: pKi
// pKi here means minus log10 of the molar concentration (mol/L)

Use these answered entries as a reference point.
### Prompt Field request: pKi | item: CC(C)(C)c1ccc(-c2ccc(NCc3ccc(Cl)cc3-c3ccc(C(=O)NCCC(=O)O)nc3)cc2)cc1
### Response 6.50

### Prompt Any idea what its pKi is? The compound is O=C(O)CCNC(=O)c1ccc(-c2cc(Cl)ccc2C(=O)Nc2ccc(-c3ccc(Cl)cc3Cl)cc2)cn1
### Response 7.34

### Prompt Find the recorded pKi belonging to O=C(O)CCNC(=O)c1ccc(-c2cc(F)c(F)cc2CNc2ccc(-c3ccc(Cl)cc3)c(Cl)c2)cn1 and report it.
### Response 7.16

### Prompt Look up pKi for this compound: O=C(O)CCNC(=O)c1ccc(-c2cc(Cl)ccc2CNc2ccc(-c3ccc(F)c(Cl)c3)c(Cl)c2)cn1
### Response 6.93

### Prompt Find the recorded pKi belonging to O=C(O)CCNC(=O)c1ccc(-c2cc(Cl)ccc2CNc2ccc(-c3c(F)cccc3Cl)cc2)cn1 and report it.
### Response 6.86

Further cases:
### Prompt # get_value(readout='pKi', item= COc1cc(C(F)(F)F)cc(-c2ccc(C(=O)NCCC(=O)O)nc2)c1CNc1ccc(-c2ccc(C(F)(F)F)cc2Cl)cc1 )
### Response 7.41

### Prompt For the compound shown here, O=C(O)CCNC(=O)c1ccc(-c2cc(C(F)(F)F)cc(Cl)c2CNc2ccc(-c3ccc(Cl)cc3)c(Cl)c2)cn1 , give the reported pKi.
### Response 8.15

### Prompt What value of measured pKi is listed for O=C(O)CCNC(=O)c1ccc(-c2cc(Cl)ccc2CNc2ccc(-c3ccc(F)c(Cl)c3)cc2)cn1 ?
### Response 7.13

### Prompt So what's the measured pKi for this one? CC(=O)c1ccc(-c2ccc(NCc3ccc(Cl)cc3-c3ccc(C(=O)NCCC(=O)O)nc3)cc2)cc1
### Response 6.79

### Prompt pKi for Cc1cc(NCc2cc(Cl)c(C(F)(F)F)cc2-c2ccc(C(=O)NCCC(=O)O)nc2)ccc1-c1ccc(Cl)cc1 ?
### Response 7.50

### Prompt Quick one: pKi for O=C(O)CCNC(=O)c1ccc(-c2cc(C(F)(F)F)ccc2CNc2ccc(-c3ccc(Cl)cc3F)c(Cl)c2)cn1 ?
### Response 7.52

Cited source for all entries: patent US8748624B2
